# tested-system: T1, human GIPR (human, UniProt P48546 22-466)
# T1 sequence (looked up): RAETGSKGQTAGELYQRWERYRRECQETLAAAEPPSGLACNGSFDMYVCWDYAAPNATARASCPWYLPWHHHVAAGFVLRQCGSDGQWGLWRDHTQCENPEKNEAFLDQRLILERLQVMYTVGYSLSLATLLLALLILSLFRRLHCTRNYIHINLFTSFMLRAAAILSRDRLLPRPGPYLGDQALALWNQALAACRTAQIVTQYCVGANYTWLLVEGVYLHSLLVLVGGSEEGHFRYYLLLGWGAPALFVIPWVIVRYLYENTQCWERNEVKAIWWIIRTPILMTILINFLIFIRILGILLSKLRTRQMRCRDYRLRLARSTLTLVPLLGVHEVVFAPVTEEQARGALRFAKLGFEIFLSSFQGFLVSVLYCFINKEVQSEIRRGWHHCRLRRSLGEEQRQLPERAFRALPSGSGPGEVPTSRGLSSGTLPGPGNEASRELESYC
# assay-name: cell-based or functional assay
Bridges are numbered along the chain shown (N, C = ends). Where no end group is shown, it is not given here. [ ]: non-standard residue; d: D form. staple K20 = not defined here; staple K8 = not defined here; Aib = CC(C)(N)C(=O)O
metric-name: EC50 cAMP 0% FBS (nM)
Form entry: value (nM) — number only.

EC50 cAMP 0% FBS reading for Y[Aib]EGTFTSDYSIYKDKQAA[Aib]KFVNWLLAGGPSSGAPPPS (linker 14-21 via staple K20; reading uncertain) [Conjugate 153] : 0.01

Record Y[Aib]EGTFTSDYSIYKDKQAA[Aib]KFVNWLLAGGPSSGAPPPS (linker 14-21 via staple K8; not fully specified; reading uncertain) [Conjugate 152] . Reported EC50 cAMP 0% FBS: 0.05
